Each recorded value in this set is attributed to PubChem BioAssay (NCI).

growth values by entry
Test system: SF-295 CNS
Assay: NCI-60 one-dose screen, 48 h (100 = growth as untreated, 0 = no growth, -100 = all killed)
Conditions: 10 µM unless noted
Compounds without any hit were thinned out: in the full panel of roughly 83,000, 20% have a hit.
Readout Name: growth (%)

INSERT INTO assay_data (molecule, quantity_unit, observed_measurement) VALUES
  ('CCN(CC)CCCCNc1ccc(NCCCCN(CC)CC)c2c1C(=O)c1ccccc1C2=O', '%', 110),
  ('COc1ccc(C(=O)c2sc3nc4c(cc3c2N)CCCC4)cc1OC', '%', 28.6),
  ('C=C1CC[C@@H]2[C@](C)(COC(C)=O)[C@H](OC(C)=O)CC[C@@]2(C)[C@@H]1CC(Nc1ccc(S(=O)(=O)Nc2ccc(Cl)nn2)cc1)C1=CCOC1=O (some centres not stated)', '%', 92.8),
  ('O=C(O)c1cn(C2CC2)c2cc(N3CCN(Cc4nc5c(cnn5-c5ccc([N+](=O)[O-])cc5)c(=O)[nH]4)CC3)c(F)cc2c1=O', '%', 105),
  ('C#Cc1nc(Nc2cc(C)[nH]n2)c2ccccc2n1', '%', -57.9),
  ('COc1cc(OC)c(/C=C/C(=O)c2c(OC)cc(OC)cc2OC)c(OC)c1', '%', 6.33),
  ('O=C(O)c1ccc(=O)[nH]n1', '%', 109),
  ('CCNS(=O)(=O)c1ncnc2nc[nH]c12', '%', 109),
  ('O=C(CO[N+](=O)[O-])Nc1ccc(C(=O)/C=C/c2ccc(Cl)cc2)cc1', '%', 105),
  ('CC1=C(NCCN2CCCC2)C(=O)c2c(OCc3ccc(C(F)(F)F)cc3)cccc2C1=O', '%', 76.7),
  ('c1ccc2sc(SCCCn3ccnc3)nc2c1', '%', 97.4),
  ('CC(=O)C1=C(O)C=C2Oc3c(C(=O)/C=C/c4cc(Cl)cc(Cl)c4)c(O)c(C)c(O)c3[C@]2(C)C1=O', '%', -18.7),
  ('O=C(/C=C/c1cccc(Br)c1)c1ccccc1', '%', 94.9),
  ('COCCCNc1nc(NC(=O)c2ccc(F)cc2C)cc(-c2cccnc2)n1', '%', 104),
  ('COc1ccc(S(=O)(=O)NCCNc2nccc(-c3c(-c4cccc([N+](=O)[O-])c4)nc4sccn34)n2)cc1', '%', 90.6),
  ('COc1ccc(-c2cn3c(-c4ccc(OC)cc4)cnc3c(Oc3ccc4c(C)cc(=O)oc4c3)n2)cc1', '%', 23.3),
  ('COc1ccc2c(c1)C(=O)/C(=C/c1cccc(OCC(=O)Nc3nc4c(s3)CCCC4)c1)O2', '%', 52.1),
  ('COCCOc1ccc(-c2nc3ccc(-c4nc5ccc(N6CCN(C)CC6)cc5[nH]4)cc3[nH]2)cc1', '%', 48.4),
  ('COc1cnc2c(c1)C(=O)c1c-2n(CCCN2CCN(C)CC2)c(=O)c2cc([N+](=O)[O-])ccc12', '%', -80.8),
  ('CN(C)CC(=O)Nc1ccc(Cn2nnc3c2C(=O)c2nnn(Cc4ccc(NC(=O)CN(C)C)cc4)c2C3=O)cc1', '%', -87.4),
  ('COc1cc(-c2c3c(nc4c2c(C)nn4-c2ccccc2)-c2ccccc2C(=O)C3=O)cc(OC)c1OC', '%', 107),
  ('CCc1ccccc1NC(=O)c1sc2nc3c(cc2c1N)C(=O)CCC3', '%', -3.21),
  ('NC(N)=Nc1ccc(S(=O)(=O)O)cc1', '%', 117),
  ('COc1ccc(-n2c(C)nc3c(c(C)nn3-c3ccccc3)c2=O)cc1', '%', 3.34),
  ('CCOC(=O)Cc1cnn(C)c1NC(=O)c1ccc(Cl)cc1NC(C)=O', '%', 101),
  ('O=C(/C=C\c1cccc([N+](=O)[O-])c1)c1ccccc1', '%', 89.9),
  ('CCN(CC)c1ccc(/C=C/C2=[N+](C)c3ccccc3C2(C)C)cc1', '%', -19),
  ('CC(=O)Oc1cc2cnc3c4cc(OC(C)=O)c(OC(C)=O)cc4ccc3c2cc1OC(C)=O', '%', 13.9),
  ('CCOC(=O)c1c2c(n3ccc(NC(=O)CCN(CC)CC)cc13)C(=O)c1ncccc1C2=O', '%', 38),
  ('COc1cccc2c1C(=O)c1c(O)c3c(c(O)c1C2=O)C[C@@](O)(/C(C)=N/NC(=O)c1ccc(Cl)cc1)C[C@@H]3OC1CC(N)C(O)C(C)O1 (some centres not stated)', '%', -60.4),
  ('CCCCCCCCCCCCCCCCCCNC(=O)[C@H]1CSC(c2ccc(F)c(OC)c2)N1 (some centres not stated)', '%', 30.8),
  ('C=C(C[n+]1ccccc1)[C@@H]1CC[C@]2(C(=O)OC)CC[C@]3(C)[C@H](CC[C@@H]4[C@@]5(C)CC[C@H](O)C(C)(C)[C@@H]5CC[C@]43C)[C@@H]12', '%', 103),
  ('CCCCCCCCCCCCCCCC(=O)OCC1OC(n2cnc3c(=S)nc(N)[nH]c32)C(OC(=O)CCCCCCCCCCCCCCC)C1OC(=O)CCCCCCCCCCCCCCC (configuration not stated)', '%', 21.1),
  ('CCN(CC)c1ccc(CNc2cc(C)nc3ccc(OC)cc23)cc1', '%', 16.5),
  ('O=S(=O)(NCCCNc1cc(-c2cn(-c3ccccc3)nc2-c2ccccc2)ccn1)c1ccc(C(F)(F)F)cc1', '%', 38.8),
  ('Nc1nc(-c2ccc(F)cc2)cc(-c2cnn(-c3ccccc3)n2)n1', '%', 107),
  ('O=C1/C(=C/c2ccccc2)CN(CCC(=O)N2C/C(=C\c3ccccc3)C(=O)/C(=C/c3ccccc3)C2)C/C1=C\c1ccccc1', '%', 90.7);
